meta.source: patent US20260234101A1

// values below are reported purity estimated by HPLC, Day 14, Condition 54° C. ± 2° C.
experiment: Stability studies: storage at room temperature and accelerated storage condition, purity estimated by HPLC; format: physicochemical; conditions: Day 14; 54° C. ± 2° C. (accelerated storage); properly packed material
Just the number.

Field: example entries. Status: answers known.
1. COc1cccc(O)c1/C=N/[C@@H](CCCNC(=N)N)C(=O)O; 98.85
2. N=C(N)NCCC[C@H](/N=C/c1ccc2c(c1)OCO2)C(=O)O; 98.90
3. C=CCc1cccc(/C=N/[C@@H](CCCNC(=N)N)C(=O)O)c1O; 99.30
4. N=C(N)NCCC[C@H](/N=C/c1ccc2ccccc2c1)C(=O)O; 99.45
5. Cc1ccc(/C=N/[C@@H](CCCNC(=N)N)C(=O)O)o1; 99.00

Note: attention shifts to another entry.
Entry `N=C(N)NCCC[C@H](/N=C/c1cccc(C(F)(F)F)c1)C(=O)O` ; purity estimated by HPLC, Day 14, Condition 54° C. ± 2° C. = 99.55
